Listing of entries alongside the reported GI50.
System: SF-539
PROTOCOL TEXT: NCI tumour cell line growth inhibition, 48 h
Calls of active or inactive are those of the source. Rule as the data show it: active = GI50 up to about 1.1 µM and inactive = higher.

-- ask Provide measured GI50 value, entry: C=CCCCCCCCCCP(=O)(c1ccccc1)c1ccc2c(c1)OCCOCCOCCOCCO2 (centres undefined)
-- reply 17.3 µM (inactive)

-- ask Supply reported GI50 belonging to this molecule: `O=C1c2ccccc2C(=O)N1n1c(Cc2ccccc2)n[nH]c1=O`
-- reply > 100 µM (inactive)

----------
Tested on: OVCAR-3
PROTOCOL TEXT: NCI tumour cell line growth inhibition, 48 h
Active and inactive are the calls of the source. No stated cut-off is given here; in the data, active = GI50 up to about 1.1 µM and inactive = higher.
METRIC NAME: GI50

Some entries whose results are on file:
O=[N+]([O-])c1ccc(NN=C2c3ccccc3Cc3ccccc32)c([N+](=O)[O-])c1
2.39 µM (inactive)
CC1=C(C#N)S(=O)(=O)c2c(oc(C)c2C)N1
> 100 µM (inactive)
S=c1[nH]nc(COc2ccc3c(c2)CCCC3)n1/N=C/c1ccc(Cl)cc1
16 µM (inactive)
Cn1cc(S(=O)(=O)NC(=O)Nc2ccc(Cl)cc2)c(=O)c2ccc(Cl)cc21
> 100 µM (inactive)
COc1c2c(cc3oc(C)cc(=O)c13)OC(=N)C(C(N)=O)C2CC(=O)c1ccc(N)cc1 (stereo not given)
> 100 µM (inactive)

-- ask Provide GI50 value for the following molecule: `COc1ccc(-c2cc(-c3ccccc3)c(C#N)c(=O)[nH]2)cc1`
-- reply > 100 µM (inactive)

-- ask Tell me GI50 reported for `O=c1c2cccc3cccc(c4oc5c6cccc7cccc(c(=O)c5c14)c76)c32`
-- reply 12 µM (inactive)

-- ask Look up GI50 of `CNc1nc2n(CCO)c(-c3ccccc3)c(-c3ccccc3)nc-2c(=O)n1` and report it.
-- reply 14.8 µM (inactive)

-- ask Tell me measured GI50 for `O=[N+]([O-])/C(C(Cl)=C(Cl)Cl)=C(\N1CCCCC1)n1cncn1` please.
-- reply 16 µM (inactive)

-- ask Supply GI50 value. Item: `CCCCSC1=N/C(=C\c2ccccc2O)C(Cl)=N1`
-- reply > 100 µM (inactive)

All values here come from ChEMBL document CHEMBL1201862.
